pIC50: −log10 of the molar value.
Observed pIC50 for SARS-CoV 3CLpro (Severe acute respiratory syndrome coronavirus), reported per entry below.

>  <Entry Smiles>
CC(C)(C)C[C@H](NC(=O)C(F)(F)F)C(=O)N1C[C@H]2[C@@H]([C@H]1C(=O)NN(C[C@@H]1CCNC1=O)C(=O)[C@H](F)Cl)C2(C)C

>  <pIC50>
7.66

$$$$
>  <Entry Smiles>
CC[C@H](C)[C@H](NC(=O)C(C)C)C(=O)N1C[C@@H]2CCC[C@@H]2[C@H]1C(=O)NN(C[C@@H]1CCNC1=O)C(=O)[C@H](F)Cl

>  <pIC50>
7.92

$$$$
>  <Entry Smiles>
CC[C@H](C)[C@H](NC(=O)C1CC(F)(F)C1)C(=O)N1C[C@H]2[C@@H]([C@H]1C(=O)NN(C[C@@H]1CCNC1=O)C(=O)[C@@H](F)Cl)C2(C)C

>  <pIC50>
7.13

$$$$
>  <Entry Smiles>
CC(C)(C)[C@H](NC(=O)C1(F)CC1)C(=O)N1C[C@H]2[C@@H]([C@H]1C(=O)NN(C[C@@H]1CCNC1=O)C(=O)[C@@H](F)Cl)C2(C)C

>  <pIC50>
7.54

$$$$
>  <Entry Smiles>
CC(C)(C)[C@H](NC(=O)c1cc(C(F)(F)F)on1)C(=O)N1C[C@H]2[C@@H]([C@H]1C(=O)NN(C[C@@H]1CCNC1=O)C(=O)[C@H](F)Cl)C2(C)C

>  <pIC50>
6.45

$$$$
